- EXPERIMENTAL SYSTEM: HDAC1 binding Rb-NT (380-785) (Homo sapiens)
- Construct: Rb-NT (380-785)
- Sequence (P06400 380-785): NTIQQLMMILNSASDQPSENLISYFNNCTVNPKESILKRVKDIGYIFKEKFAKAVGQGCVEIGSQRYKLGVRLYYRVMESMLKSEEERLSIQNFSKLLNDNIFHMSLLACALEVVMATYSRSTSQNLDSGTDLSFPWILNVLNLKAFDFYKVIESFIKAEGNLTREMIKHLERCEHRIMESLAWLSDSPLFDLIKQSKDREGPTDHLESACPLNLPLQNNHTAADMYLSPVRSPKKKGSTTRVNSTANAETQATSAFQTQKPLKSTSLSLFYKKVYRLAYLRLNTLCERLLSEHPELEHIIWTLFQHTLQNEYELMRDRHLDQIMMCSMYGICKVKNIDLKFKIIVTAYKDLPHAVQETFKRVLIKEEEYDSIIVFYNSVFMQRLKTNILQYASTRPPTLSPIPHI
- ASSAY NAME: Inhibition of HDAC1 binding to Rb-NT (380-785)
- TEST SETTINGS: top of inhibition curve
Reported Inhibition of HDAC1 binding Rb-NT (380-785) Top values follow for various molecules
Param answer (str): number followed by unit.

Known results for molecules:
O=c1sn(-c2cccc3ccccc23)c(=O)n1Cc1ccccc1 [Tideglusib, reference compound]: 77%
Cn1c(=O)sn(-c2cccc(OCCCNC(=O)c3ccccc3)c2)c1=O [AP-08-238]: 71%
COc1cccc(-n2sc(=O)n(C)c2=O)c1 [AP-03-084]: 75%
Cn1c(=O)sn(-c2cccc(OCCCNC(=O)CC[C@@H](NC(=O)c3ccc(NCCc4cc5c(=O)[nH]c(N)nc5[nH]4)cc3)C(=O)O)c2)c1=O [AP-08-237]: 72%

Qu. Give the value of Inhibition of HDAC1 binding Rb-NT (380-785) Top reported for the following: C=CC(=O)N(C)C(=O)Nc1cccc(OC)c1 [SA-01-048]
Ans. 69%

Qu. Given Cn1c(=O)sn(-c2cccc(OCCCN)c2)c1=O [AP-08-231] , respond with its Inhibition of HDAC1 binding Rb-NT (380-785) Top.
Ans. 72%
